# Tested on: OVCAR-8
# assay.procedure: NCI tumour cell line growth inhibition, 48 h
The source made the active and inactive calls. No stated cut-off is given here; in the data, active = GI50 up to about 1.1 µM and inactive = higher.
Outcomes: active, inactive

[[record]]
compound = "O=c1oc2c(Cl)cc(Cl)cc2cc1-c1cn2c(n1)sc1ccccc12"
answer_label = "inactive"

[[record]]
compound = "C[C@@H]1C[C@@]2(O[C@@H]2C)C(=O)O[C@@H]2CCN3CC=C(COC(=O)[C@]1(C)O)[C@H]23"
answer_label = "inactive"

[[record]]
compound = "O=C1C(=O)N(c2nccs2)C(=O)C(=O)C1c1nc2ccccc2s1"
answer_label = "inactive"

[[record]]
compound = "FC(F)(F)c1ccccc1/C=N/C12CC3CC(CC(C3)C1)C2"
answer_label = "inactive"

[[record]]
compound = "COC1C(=[N+]=[N-])C(=O)NC(=O)N1C1OC(COC(c2ccccc2)(c2ccccc2)c2ccccc2)C(O)C1O (configuration not stated)"
answer_label = "inactive"

[[record]]
compound = "CSc1c(C#N)c(S)[nH]c(=O)c1C#N"
answer_label = "inactive"

[[record]]
compound = "Cc1cn(C(CO)OC(CO)CN(O)C2C3CC4CC(C3)CC2C4)c(=O)[nH]c1=O (configuration not stated)"
answer_label = "inactive"

[[record]]
compound = "O=c1/c(=C/c2ccc([N+](=O)[O-])o2)sc2n1[C@@H](c1ccc(Cl)cc1)C=C(c1cc(F)c(Cl)cc1Cl)N=2"
answer_label = "inactive"

[[record]]
compound = "COc1ccc(/C=C/C(=O)C(C)(C)Br)cc1"
answer_label = "inactive"

[[record]]
compound = "O=NN1C(c2ccccc2)CNC(=O)CC1c1ccccc1 (configuration not stated)"
answer_label = "inactive"

[[record]]
compound = "COc1cc2c(cc1O)Cc1c-2[n+](C)cc2cc(OC)c(OC)cc12"
answer_label = "inactive"

[[record]]
compound = "O=C(Cc1ccccc1)NN1C(=O)/C(=C\\c2cccc(O)c2)S/C1=N\\c1ccccc1"
answer_label = "inactive"

[[record]]
compound = "CC1CCC2(O)C3(C)CC4(O)OC2(C1O)C1(O)C3(O)C(OC(=O)c2ccc[nH]2)C(O)(C(C)C)C41C (configuration not stated)"
answer_label = "inactive"

[[record]]
compound = "CCOC(=O)CCc1c(C)c2ccc(O)cc2oc1=O"
answer_label = "inactive"

[[record]]
compound = "O=P(O)(O)CN1CCNCCN(CP(=O)(O)O)CCNCC1"
answer_label = "inactive"

[[record]]
compound = "Cc1c(CNc2ccc(Cl)c(Cl)c2Cl)cnc2nc(N)nc(N)c12"
answer_label = "active"

[[record]]
compound = "O=S(=O)(c1ccccc1)N1N=C2c3ccccc3CCC[C@H]2C1c1ccccc1 (some centres not stated)"
answer_label = "inactive"

[[record]]
compound = "O=c1cc(-c2nc3ccccc3[nH]2)[nH]c2nc(-c3nc4ccccc4[nH]3)cc(-c3ccc(Cl)cc3)c12"
answer_label = "inactive"

[[record]]
compound = "CC(C)(C)CC(C)(C)N/C(N)=N/O"
answer_label = "inactive"

[[record]]
compound = "O=C(c1nc2ccc(Cl)cc2nc1O)C(O)c1ccc2c(c1)OCO2 (configuration not stated)"
answer_label = "inactive"

[[record]]
compound = "N#Cc1c(-c2ccc([N+](=O)[O-])cc2)c(C#N)c(=O)n(NS(=O)(=O)c2ccccc2)c1S"
answer_label = "inactive"

[[record]]
compound = "CC(C)(C)C1CCC2c3c([nH]c4ccccc34)C3C(=O)N(c4ccc([N+](=O)[O-])cc4)C(=O)C3C2C1 (configuration not stated)"
answer_label = "inactive"

